Molecular target: T1, human activated protein C (human, UniProt P04070 43-197; P04070 212-461)
T1 construct: also called human aPC; human APC
Assay: SPR (Biacore)
pKd: −log10 of the molar value.

# binder, pKd
measured = [
    ("Hu1573-1 (antibody, V domains shown, Humanized IgG, human gamma 1 / kappa constant regions by vectors pCP-hCg1 and pCP-hck; also called H1573VH.1 + H1573Vk.2C) VH: EVQLVESGGGLVQPGGSLRLSCAASGFTFSNYYLNWVRQAPGKGLEWVGDIRLKSNNYEKHYAESVKGRFTISRDDSKNSLYLQMNSLKTEDTAVYYCAREGDYFDYWGQGTTVTVSS VL: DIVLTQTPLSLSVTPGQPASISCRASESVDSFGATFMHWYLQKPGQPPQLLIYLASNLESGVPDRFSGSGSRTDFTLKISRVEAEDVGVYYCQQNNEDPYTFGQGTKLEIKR", "> 8.30"),
]
